// data source = paper PMC13376213

Biological target: T1, CYLD CAP-Gly1 domain, GST-tagged, Q9NQC7
T1 chain: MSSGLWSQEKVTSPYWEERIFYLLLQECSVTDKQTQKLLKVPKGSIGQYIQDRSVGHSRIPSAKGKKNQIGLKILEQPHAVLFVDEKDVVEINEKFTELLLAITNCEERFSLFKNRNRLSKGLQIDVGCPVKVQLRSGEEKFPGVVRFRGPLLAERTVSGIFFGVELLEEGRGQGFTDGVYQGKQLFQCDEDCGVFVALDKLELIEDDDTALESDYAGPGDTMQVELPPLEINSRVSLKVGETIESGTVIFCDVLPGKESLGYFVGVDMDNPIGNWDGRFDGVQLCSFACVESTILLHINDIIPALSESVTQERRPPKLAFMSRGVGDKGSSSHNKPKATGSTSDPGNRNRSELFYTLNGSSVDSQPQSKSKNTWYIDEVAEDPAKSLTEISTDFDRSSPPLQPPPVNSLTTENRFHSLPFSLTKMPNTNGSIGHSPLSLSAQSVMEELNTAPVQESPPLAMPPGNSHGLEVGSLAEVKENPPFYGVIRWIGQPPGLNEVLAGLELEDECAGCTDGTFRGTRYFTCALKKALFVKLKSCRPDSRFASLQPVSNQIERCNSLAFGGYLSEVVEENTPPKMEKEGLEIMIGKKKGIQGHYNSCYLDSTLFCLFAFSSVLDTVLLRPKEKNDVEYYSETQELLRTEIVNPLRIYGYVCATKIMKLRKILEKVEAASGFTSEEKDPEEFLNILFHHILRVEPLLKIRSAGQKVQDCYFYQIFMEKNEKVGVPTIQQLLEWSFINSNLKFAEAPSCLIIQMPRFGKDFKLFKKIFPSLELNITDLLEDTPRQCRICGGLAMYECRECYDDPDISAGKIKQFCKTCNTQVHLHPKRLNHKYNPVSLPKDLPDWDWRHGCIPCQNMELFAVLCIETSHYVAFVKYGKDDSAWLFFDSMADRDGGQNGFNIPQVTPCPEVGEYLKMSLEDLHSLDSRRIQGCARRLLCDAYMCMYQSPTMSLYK
Test: peptide SPOT array alanine scanning
Conditions: chain shown with the change;; parent: est. 0; read off a plot
# if measured other: signal change (%) < -10%: Fulfilled  # else: Not fulfilled

A record lists ADAELQRMEQEAERRR [RBM25_(558-573) peptide, P49756 P558A] . Is its other: signal change (%) below -10%?
Not fulfilled

A record lists PDAELQRMEQEAEARR [RBM25_(558-573) peptide, P49756 R571A] . Is its other: signal change (%) below -10%?
Fulfilled

A record lists PDAEAQRMEQEAERRR [RBM25_(558-573) peptide, P49756 L562A] . Is its other: signal change (%) below -10%?
Fulfilled

A record lists PDAALQRMEQEAERRR [RBM25_(558-573) peptide, P49756 E561A] . Is its other: signal change (%) below -10%?
Fulfilled

A record lists PDAELQRMEQEAERRA [RBM25_(558-573) peptide, P49756 R573A] . Is its other: signal change (%) below -10%?
Fulfilled
